Where do the numbers come from? From the METLIN SMRT retention time set (Domingo-Almenara et al. 2019).

# TEST_PROTOCOL: gradient 5% acetonitrile 3 min, to 50% in 2 min, to 85% in 15 min, held 3 min, 100 µL/min
# RECORDED_CONDITIONS: column: Zorbax Extend-C18 2.1 x 50 mm; eluents: water / acetonitrile, 0.1% formic acid
Friendly reminder: RP-LC retention time below 700 s is 1, at or above is 0.

Consider the worked cases shown below.
>>> label("CC(=O)Nc1cccc(N2CC(C(=O)Nc3ccc(OC(F)(F)F)cc3)CC2=O)c1 (configuration not stated)")
0
>>> label("Cc1cc(C)n(-c2ccnc(N3CCC(C(=O)NCc4ccco4)CC3)n2)n1")
0
>>> label("O=C(NCc1ccc2c(c1)N(C(=O)c1ccc(Cl)cc1)CC2)C1CC1")
0

Say whether its RP-LC retention time is strictly beneath 700 s. Entry: `COc1ccc(-c2nnc(-c3cccc(S(=O)(=O)N4CCCCC4)c3)o2)cc1`
0

Consider the molecule `COCCn1cc(CCNC(=O)Nc2cccc(C)c2)c2cccnc21` . Is its RP-LC retention time strictly less than 700 s?
0

====

# TEST_PROTOCOL: gradient 5% acetonitrile 3 min, to 50% in 2 min, to 85% in 15 min, held 3 min, 100 µL/min
# RECORDED_CONDITIONS: column: Zorbax Extend-C18 2.1 x 50 mm; eluents: water / acetonitrile, 0.1% formic acid
Measured RP-LC retention time values are reported for all entries that follow.
Number only, in s; omit the unit.

>>> reported("Cc1ccc(-n2c(N3CCCC(C(=O)NC(C)c4cccnc4)C3)nc3ccsc3c2=O)cc1 (stereo unspecified)")
633

Give reported RP-LC retention time value for CC(C(=O)NN1CCOCC1)n1nc(-c2ccco2)ccc1=O (stereo unspecified)
584

State, in one line, measured RP-LC retention time of `Cn1c(=O)sc2cc(S(=O)(=O)N3CCC(C(=O)NC4CCCCC4)CC3)ccc21`
822

Quick one: give measured RP-LC retention time for `Cc1nc(C(=O)NCC2CCCCC2)c(C)o1`
922

# return recorded RP-LC retention time for input `O=C(Nc1nnc(Cc2ccccc2)s1)C1CCN(C(=O)c2cccc(F)c2)CC1`
798

Assign RP-LC retention time to the following record: O=C(Nc1ccccc1)C1CCCN(c2nnc3ccc(Cl)cn23)C1 (stereo unspecified)
753

====

Below, each entry is listed with its recorded RP-LC retention time.
# TEST_PROTOCOL: gradient 5% acetonitrile 3 min, to 50% in 2 min, to 85% in 15 min, held 3 min, 100 µL/min
# RECORDED_CONDITIONS: column: Zorbax Extend-C18 2.1 x 50 mm; eluents: water / acetonitrile, 0.1% formic acid
// unit must come after the numeric part

>>> reported("Cc1nn(C)c(C)c1S(=O)(=O)N1CCC(c2noc(-c3cccnc3)n2)C1 (centres undefined)")
"662 s"

For the compound `O=C(c1ccn2c(-c3cccc(Cl)c3)nnc2c1)N1CCN(c2ccccn2)CC1` , give its reported RP-LC retention time.
608 s

Read the entry `COc1ccc(NC(=O)CSc2nnc3c4cc(-c5ccccc5)nn4ccn23)c(OC)c1` and write its reported RP-LC retention time.
858 s

====

# TEST_PROTOCOL: gradient 5% acetonitrile 3 min, to 50% in 2 min, to 85% in 15 min, held 3 min, 100 µL/min
# RECORDED_CONDITIONS: column: Zorbax Extend-C18 2.1 x 50 mm; eluents: water / acetonitrile, 0.1% formic acid
OBSERVATION_TYPE: RP-LC retention time (s)
Provide the reading as a plain figure in s.

Observe how each entry below is paired with its result.
>>> reported("CN1CCCN(C(=O)c2cn3ccnc(-c4ccccc4)c3n2)CC1")
710
>>> reported("O=C(C1=NN(Cc2cccc(Cl)c2)c2ccccc2S1(=O)=O)N1CCOCC1")
856

State, in one line, measured RP-LC retention time of `COc1ccc(-c2noc(Cc3nc(-c4cc(C)c(C)cc4C)cs3)n2)cc1`
1340

Identify the reported RP-LC retention time for the following entry. `O=C(CCNC(=O)Cn1cnc2ccccc2c1=O)NCCc1c[nH]c2ccccc12`
668

Could you please provide reported RP-LC retention time for `O=C(NCc1ccco1)C1CCN(c2cnn(Cc3ccccc3)c(=O)c2)CC1` ? Thanks!
723

Find the measured RP-LC retention time of `O=C(CCC1CCCC1)Nc1nc(-c2ccc3ccccc3c2)cs1` and report it.
1340

Give RP-LC retention time for `Cc1oc(-c2[nH]ncc2C(=O)N2CCCC2)cc1S(=O)(=O)NCc1ccco1`
651

Tell me its RP-LC retention time given `CC(C)(C)NC[C@H](O)COc1cccc2[nH]c(C#N)cc12` as the entry.
663

Return reported RP-LC retention time. Input compound: `CC1CCN(S(=O)(=O)c2ccc(-c3nnc(C(=O)NCCc4cccs4)o3)cc2)CC1`
1060

Answer with reported RP-LC retention time of O=C(N1CCCC1c1nc(CCOCC2CC2)no1)C1(c2ccccc2)CC1 (stereo not drawn)
886

Output RP-LC retention time of `COC(=O)c1ccc(NC(=O)N(Cc2cc(=O)[nH]c3ccccc23)CC(C)C)cc1`
830

Please look at this compound and report its RP-LC retention time: Cc1ccc2c(c1)N(S(C)(=O)=O)CCC(C(=O)Nc1ccc(Cl)cc1)O2 (stereo not drawn)
1020

====

# TEST_PROTOCOL: gradient 5% acetonitrile 3 min, to 50% in 2 min, to 85% in 15 min, held 3 min, 100 µL/min
# RECORDED_CONDITIONS: column: Zorbax Extend-C18 2.1 x 50 mm; eluents: water / acetonitrile, 0.1% formic acid
The label true (1) is reserved for RP-LC retention time strictly under 900 s; false (0) covers values equal to or above it.

Example results:
>>> label("O=C(CN1C[C@H]2C[C@H](C1)[C@H]1CCCC(=O)N1C2)NCC1CCCCC1")
"true (1)"
>>> label("Cc1csc(-c2cc(S(=O)(=O)NCC(C)c3ccccc3)c(C)s2)n1 (centres undefined)")
"false (0)"
>>> label("COc1cc(OC)c(OC)cc1CN1C[C@@H]2C(=O)N(C)C(=O)[C@@H]2C1")
"true (1)"
>>> label("COC(=O)c1scc(-c2ccccc2)c1S(=O)(=O)N1CCC(C(N)=O)(N2CCCCC2)CC1")
"true (1)"
>>> label("CCC(C(=O)Nc1c(-c2ccc(F)cc2)nc2cc(C)ccn12)c1ccccc1 (centres undefined)")
"true (1)"

Take the molecule `O=S(=O)(c1cc(Cl)ccc1Cl)N1CCc2nc(-c3ccccc3)ncc2C1` and say whether its RP-LC retention time is less than 900 s.
false (0)

====

# TEST_PROTOCOL: gradient 5% acetonitrile 3 min, to 50% in 2 min, to 85% in 15 min, held 3 min, 100 µL/min
# RECORDED_CONDITIONS: column: Zorbax Extend-C18 2.1 x 50 mm; eluents: water / acetonitrile, 0.1% formic acid
OBSERVATION_TYPE: RP-LC retention time (s)
Numeric only. Scale: s

Below, each entry is followed by its recorded RP-LC retention time result.
>>> reported("Cc1cc2nn(CC(=O)Nc3ccc(C(C)C)cc3)c(=O)n2c(-c2ccccc2)n1")
862
>>> reported("Cc1nn(-c2nc(-c3ccc(F)cc3)cs2)c(C)c1CC(=O)N1CCc2ccccc2C1")
1220
>>> reported("CCCc1nnsc1C(=O)Nc1nnc(Cc2ccc(F)cc2)o1")
890

Then this compound:
Let me know recorded RP-LC retention time for CCC(C(=O)NCCN1CCOCC1)n1c2ccccc2c2cnn(C)c(=O)c21 (centres undefined) , thanks.
617

====

# TEST_PROTOCOL: gradient 5% acetonitrile 3 min, to 50% in 2 min, to 85% in 15 min, held 3 min, 100 µL/min
# RECORDED_CONDITIONS: column: Zorbax Extend-C18 2.1 x 50 mm; eluents: water / acetonitrile, 0.1% formic acid
Mark each entry Criterion met if its RP-LC retention time sits below 700 s, and Criterion not met for all others.

As a guide, the following entries are already answered.
>>> label("Cc1c(Cl)cccc1S(=O)(=O)N1CCc2c(c(-c3nnc(-c4ccccc4)o3)nn2C)C1")
"Criterion not met"
>>> label("O=C(Cn1cnc2ccccc2c1=O)N1CCC(c2nnc(-c3ccco3)o2)CC1")
"Criterion met"
>>> label("O=c1c2ccccc2c(-c2nc(-c3cccnc3)no2)cn1-c1ccc(Cl)cc1")
"Criterion not met"

Report whether reported RP-LC retention time is lower than 700 s (strictly) for `COc1ccccc1NC(=O)Cn1nc2cc(C)nc(-c3ccccc3)n2c1=O`
Criterion not met

Lab note: confirm whether the reported RP-LC retention time for this compound is below 700 s, equality not counting. compound: COc1ccc(C2CC(=O)c3cnc(Nc4nc(C)c5cc(C)c(C)cc5n4)nc3C2)cc1 (stereo unspecified)
Criterion not met

Does `COc1ccc(NC(=O)Nc2cccc(-c3ccc(N4CCOCC4)nn3)c2)cc1` have RP-LC retention time strictly under 700 s?
Criterion met
